The following compounds are listed with their measured pIC50 values.
# experimental_system: UniProt:P41594
# Sequence (P41594 21-1212): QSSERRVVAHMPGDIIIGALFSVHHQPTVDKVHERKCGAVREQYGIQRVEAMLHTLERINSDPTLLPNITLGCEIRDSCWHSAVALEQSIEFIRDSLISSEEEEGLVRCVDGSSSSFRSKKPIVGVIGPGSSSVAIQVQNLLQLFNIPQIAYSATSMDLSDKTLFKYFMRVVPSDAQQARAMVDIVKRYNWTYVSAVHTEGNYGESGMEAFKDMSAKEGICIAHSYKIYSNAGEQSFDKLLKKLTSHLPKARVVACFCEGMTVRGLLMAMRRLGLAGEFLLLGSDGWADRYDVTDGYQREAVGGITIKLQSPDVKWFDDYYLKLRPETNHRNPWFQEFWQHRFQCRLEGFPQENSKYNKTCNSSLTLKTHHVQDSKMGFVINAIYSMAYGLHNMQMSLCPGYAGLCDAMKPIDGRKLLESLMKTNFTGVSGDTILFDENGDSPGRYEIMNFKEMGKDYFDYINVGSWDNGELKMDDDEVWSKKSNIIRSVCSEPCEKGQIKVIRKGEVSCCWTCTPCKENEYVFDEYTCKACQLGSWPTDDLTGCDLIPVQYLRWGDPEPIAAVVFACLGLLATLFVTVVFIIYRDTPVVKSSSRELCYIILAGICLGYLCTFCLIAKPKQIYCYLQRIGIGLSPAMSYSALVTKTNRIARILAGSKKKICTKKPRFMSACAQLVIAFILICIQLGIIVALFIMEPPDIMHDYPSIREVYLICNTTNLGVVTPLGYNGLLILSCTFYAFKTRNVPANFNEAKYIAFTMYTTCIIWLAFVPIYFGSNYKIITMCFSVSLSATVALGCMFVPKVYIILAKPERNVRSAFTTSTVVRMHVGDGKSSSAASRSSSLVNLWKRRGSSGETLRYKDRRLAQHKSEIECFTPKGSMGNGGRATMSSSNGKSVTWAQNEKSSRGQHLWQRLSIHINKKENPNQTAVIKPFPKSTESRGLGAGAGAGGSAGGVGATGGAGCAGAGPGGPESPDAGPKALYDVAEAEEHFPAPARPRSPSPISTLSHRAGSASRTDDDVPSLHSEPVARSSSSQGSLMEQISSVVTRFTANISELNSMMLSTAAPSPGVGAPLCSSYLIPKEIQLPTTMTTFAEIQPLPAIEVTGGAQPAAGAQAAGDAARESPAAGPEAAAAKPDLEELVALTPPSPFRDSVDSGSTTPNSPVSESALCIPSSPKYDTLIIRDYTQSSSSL
# test_name: Experiment for receptor function of mGluR5 (Ca2+-dependent fluorescence, FLIPR, CHO-K1 cells stably expressing human mGluR5)
# details: L-glutamic acid 10 μM, Fluo-4 fluorescence
pIC50: −log10 of the molar value. Where a name gives a salt, the structure may show the parent alone.
quantity_measured: pIC50

INSERT INTO results (compound, quantity_measured, readout_value) VALUES
  ('Clc1nccnc1-c1cc(OCc2ccccn2)nc2c1CCCC2 [Example 197, hydrochloride]', 'pIC50', 7.03),
  ('Fc1cccc(COc2cc(-c3cncnc3)c3c(n2)CCCC3)c1 [Example 281]', 'pIC50', 7.03),
  ('N#Cc1ccc(COc2cc(-c3cncc(F)c3)c3c(n2)CCC3)nc1 [Example 250]', 'pIC50', 7.97),
  ('c1ccc(COc2cc(-c3cnccn3)c3c(n2)CCCC3)nc1 [Example 194, hydrochloride]', 'pIC50', 7.94),
  ('c1ccc(COc2cc(-c3cccnn3)c3c(n2)CCC3)nc1 [Example 271]', 'pIC50', 7.04),
  ('Nc1cncc(-c2cc(OCc3ccccn3)nc3c2CCCC3)n1 [Example 206, hydrochloride]', 'pIC50', 7.44),
  ('Cc1csc(COc2cc(-c3cccnc3)c3c(n2)CCCC3)n1 [Example 95]', 'pIC50', 7.38),
  ('Cc1ncc(-c2cc(OCc3ccccn3)nc3c2CCCC3)s1 [Example 225, hydrochloride]', 'pIC50', 6.99),
  ('Cc1ncc(-c2cc(OCc3ccccc3)nc3c2CCC3)cn1 [Example 38]', 'pIC50', 7.35);
